The values you see were collected from the supplement of paper PMC13380429.

# Test system: A549-ACE2
# measurement-notes: drug-induced phospholipidosis relative to tamoxifen; higher = more phospholipidosis
# cond: 6.66667 µM; 24 h
Where a name gives a salt, the structure may show the parent alone.
result-type: drug-induced phospholipidosis (%)
Field: numeric (%). Do not append units.

# count of solved cases: 3
molecule | drug-induced phospholipidosis [%]
Cc1ccc(CNc2ncnc3ccc(-c4ccc(CO)o4)cc23)o1 | 5.92
C[C@H](N)Cc1c[nH]cn1 [alpha-methylhistamine-dihydrobromide-(S)-(+)] | -0.13
COc1cc(COc2cc(N)c(Cl)cc2C(=O)CCC2CCN(CCNS(C)(=O)=O)CC2)cc(OC)c1 | 15.2

Could you share which drug-induced phospholipidosis value was measured for `Oc1cc(CNC(=S)/C=C/c2cc(O)c(O)c(Br)c2)cc(O)c1O` ?
22

Do the same for S=C(S)N1CCCC1 [pyrrolidine-dithiocarbamate] please
5.92
